Each recorded value in this set is attributed to patent EP4818205A1.

Target: T1, recombinant protein His-fib-hTL1A (human)
T1 construct: expressed in HEK293 cells; also called human TL1A
T1 chain: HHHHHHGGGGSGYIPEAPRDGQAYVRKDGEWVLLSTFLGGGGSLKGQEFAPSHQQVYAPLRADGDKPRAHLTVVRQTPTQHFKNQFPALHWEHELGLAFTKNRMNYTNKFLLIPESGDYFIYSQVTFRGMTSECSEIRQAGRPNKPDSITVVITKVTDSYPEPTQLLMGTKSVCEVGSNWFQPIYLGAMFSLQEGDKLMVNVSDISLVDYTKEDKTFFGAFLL
Assay: SPR, Biacore T200; antibody captured by anti-human IgG (Fc), TL1A as analyte; 1:1 model
If the reported kon equals or exceeds 500000 M⁻¹ s⁻¹, assign fulfilled. If not, assign not fulfilled.

binder	classification
anti-TL1A monoclonal antibody RVT-3101 (antibody, V domains shown) VH: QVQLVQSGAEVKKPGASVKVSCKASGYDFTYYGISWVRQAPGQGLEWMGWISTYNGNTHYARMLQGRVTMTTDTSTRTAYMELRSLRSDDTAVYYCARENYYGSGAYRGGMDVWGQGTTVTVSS VL: EIVLTQSPATLSLSPGERATLSCRASQSVSSYLAWYQQKPGQAPRLLIYDASNRATGIPARFSGSGSGTDFTLTISSLEPEDFAVYYCQQRSNWPWTFGQGTKVEIK	fulfilled
mouse anti-TL1A monoclonal antibody S4D3 (antibody, V domains shown) VH: QVQLKESGSDLATPGASVKLSCKVSGYTFTKYDINWVRQRPEQGLEWIGWIFPGDGRTDYNEKFKGKATLTIDTSSSTAYMQLSRLTSEDSAVYFCARYGYALDYWGQGTSVTVSS VL: DVVMTQTPLSLPVSLGDQASISCRSSQNIVHSNGDTYLEWFLQKPGQSPKLLIYKVSNRFSGVPDRFSGSGSGTDFTLKISRVEAEDLGVYYCFQGSHFPYTFGGGTKLEMKR	fulfilled
anti-TL1A monoclonal antibody PRA023 (antibody, V domains shown) VH: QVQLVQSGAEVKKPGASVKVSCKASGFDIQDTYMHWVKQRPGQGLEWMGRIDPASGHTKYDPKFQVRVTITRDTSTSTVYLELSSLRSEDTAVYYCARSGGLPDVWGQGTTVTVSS VL: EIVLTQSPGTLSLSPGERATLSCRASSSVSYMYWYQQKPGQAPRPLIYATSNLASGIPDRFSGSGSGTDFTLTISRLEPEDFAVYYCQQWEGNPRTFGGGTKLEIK	not fulfilled
mouse anti-TL1A monoclonal antibody S9H9 (antibody, V domains shown) VH: QVQLKQSGAELVRPGTSVKISCKASGYAFTNYWLGWIKQRPGHGLEWIGDIHPGRGNIFYNEKFKGKATLTADKSSSTAYMQLSSLTSEDSAVYFCAEGYDTFDYWGQGTTLTVSA VL: DIVMTQSHKFMSTSVGDRVSITCKASQDVSTAVAWYQQKPGQSPKLLIYSASYRYTGVPDRFTGSGSGTDFTFTISSVQAEDLAVYYCQQHYSTPWTFGGGTKLEMKR	fulfilled

Then there is this binder:
Query: Assess whether reported kon for mouse anti-TL1A monoclonal antibody S7B11 (antibody, V domains shown) VH: QVKLQQSGGELVRPGTSVKISCKASGYAFTNYWLGWIKQRPGHGLEWIGDIHPGRGNIYYNEKFKGKATLTADKSSSTAYMQLSSLTSEDSAVYFCAEGYDTFDYWGQGTTLTVSS VL: DIVMTQSPSYLAASPGETITINCRASKSISKYLAWYQEKPGKTNKLLIYSGSTLQSGIPSRFSGSGSGTDFTLTISSLEPEDFAMYYCQQHNEYPYTFGGGTKLEIKR sits at 500000 M⁻¹ s⁻¹ or higher.
Result: not fulfilled
